# Study system: Voltage-gated potassium channel, IKs; KCNQ1(Kv7.1)/KCNE1(MinK) (Homo sapiens, UniProt P15382+P51787)
# Protocol summary: Inhibition of human IKs channel expressed in CHO cells by IONWORKS patch clamp assay
# Type: cell-based
Measured property: IC50

Data request: Note IC50 for the compound shown: CC(C)(C)NC(=O)NCCN1CCC(CO)(CNC(=O)c2cc(Cl)cc(Cl)c2)CC1
Data returned: > 33 µM

###

# Study system: Voltage-dependent L-type calcium channel subunit alpha-1C (Homo sapiens)
# Sequence (Q13936 whole entry): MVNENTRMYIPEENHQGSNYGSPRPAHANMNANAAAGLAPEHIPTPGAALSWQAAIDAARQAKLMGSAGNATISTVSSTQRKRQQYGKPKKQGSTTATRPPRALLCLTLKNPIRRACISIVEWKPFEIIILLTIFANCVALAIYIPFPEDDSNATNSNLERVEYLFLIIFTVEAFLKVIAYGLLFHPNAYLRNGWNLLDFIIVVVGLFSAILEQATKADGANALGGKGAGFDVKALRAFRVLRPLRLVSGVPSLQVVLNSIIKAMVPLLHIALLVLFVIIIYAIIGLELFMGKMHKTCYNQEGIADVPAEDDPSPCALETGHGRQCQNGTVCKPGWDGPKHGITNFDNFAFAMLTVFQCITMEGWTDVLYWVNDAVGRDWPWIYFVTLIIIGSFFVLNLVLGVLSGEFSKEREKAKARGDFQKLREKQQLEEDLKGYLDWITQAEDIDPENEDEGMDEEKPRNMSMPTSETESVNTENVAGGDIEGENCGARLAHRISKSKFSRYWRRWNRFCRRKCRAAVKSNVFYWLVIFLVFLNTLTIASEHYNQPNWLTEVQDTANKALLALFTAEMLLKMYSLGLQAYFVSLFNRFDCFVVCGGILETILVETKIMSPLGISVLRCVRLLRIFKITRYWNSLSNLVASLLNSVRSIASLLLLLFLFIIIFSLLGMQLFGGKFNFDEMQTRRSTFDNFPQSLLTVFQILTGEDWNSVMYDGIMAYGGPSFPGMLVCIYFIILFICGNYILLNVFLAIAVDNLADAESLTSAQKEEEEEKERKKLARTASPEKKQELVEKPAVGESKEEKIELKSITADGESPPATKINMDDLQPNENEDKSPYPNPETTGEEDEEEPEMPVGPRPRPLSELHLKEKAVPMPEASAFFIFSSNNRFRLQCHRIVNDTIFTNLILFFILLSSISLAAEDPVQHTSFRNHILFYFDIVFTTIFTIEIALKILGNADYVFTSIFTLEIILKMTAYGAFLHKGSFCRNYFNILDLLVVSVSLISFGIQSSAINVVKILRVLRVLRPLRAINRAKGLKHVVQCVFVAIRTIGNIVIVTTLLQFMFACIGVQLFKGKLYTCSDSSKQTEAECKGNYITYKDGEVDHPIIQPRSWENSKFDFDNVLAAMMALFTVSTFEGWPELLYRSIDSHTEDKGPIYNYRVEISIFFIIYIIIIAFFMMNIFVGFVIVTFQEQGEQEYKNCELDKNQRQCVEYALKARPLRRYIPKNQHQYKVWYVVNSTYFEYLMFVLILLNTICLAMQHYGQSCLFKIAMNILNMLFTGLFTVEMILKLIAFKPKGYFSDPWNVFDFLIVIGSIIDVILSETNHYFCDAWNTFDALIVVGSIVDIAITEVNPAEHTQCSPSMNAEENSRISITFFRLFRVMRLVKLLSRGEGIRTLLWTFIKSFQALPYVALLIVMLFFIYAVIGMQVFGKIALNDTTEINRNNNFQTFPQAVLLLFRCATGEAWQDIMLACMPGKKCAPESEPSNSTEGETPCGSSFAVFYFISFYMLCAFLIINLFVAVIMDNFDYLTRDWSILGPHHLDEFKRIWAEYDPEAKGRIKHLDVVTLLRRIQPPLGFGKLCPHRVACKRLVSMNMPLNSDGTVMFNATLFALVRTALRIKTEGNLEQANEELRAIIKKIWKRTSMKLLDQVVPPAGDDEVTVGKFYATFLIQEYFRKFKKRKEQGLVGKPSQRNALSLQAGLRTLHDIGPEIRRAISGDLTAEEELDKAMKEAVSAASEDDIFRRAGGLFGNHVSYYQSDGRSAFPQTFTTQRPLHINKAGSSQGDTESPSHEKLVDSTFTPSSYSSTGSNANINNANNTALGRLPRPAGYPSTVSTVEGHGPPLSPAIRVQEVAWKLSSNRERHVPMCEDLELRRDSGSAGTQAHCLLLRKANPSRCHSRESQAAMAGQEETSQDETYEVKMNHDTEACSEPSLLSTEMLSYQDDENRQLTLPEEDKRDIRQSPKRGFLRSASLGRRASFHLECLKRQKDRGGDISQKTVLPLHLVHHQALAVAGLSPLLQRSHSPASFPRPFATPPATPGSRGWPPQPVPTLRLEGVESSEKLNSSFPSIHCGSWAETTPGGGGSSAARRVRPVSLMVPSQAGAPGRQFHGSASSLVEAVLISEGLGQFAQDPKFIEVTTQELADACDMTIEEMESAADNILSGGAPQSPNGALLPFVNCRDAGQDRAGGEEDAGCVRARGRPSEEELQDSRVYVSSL
# Protocol summary: Inhibition of calcium channel Cav1.2 (unknown origin) expressed in CHO cells by IONWORKS patch clamp assay
# Type: cell-based
Measured property: IC50

Data request: Provide measured IC50 on Voltage-dependent L-type calcium channel subunit alpha-1C (Homo sapiens) for CC(C)(C)NC(=O)NCCN1CCC(CO)(CNC(=O)c2cc(Cl)cc(Cl)c2)CC1 please.
Data returned: > 31.6 µM

###

Below: a set of entries, each annotated with reported IC50.
# Study system: Cytochrome P450 2D6 (Homo sapiens)
# Sequence (P10635 whole entry): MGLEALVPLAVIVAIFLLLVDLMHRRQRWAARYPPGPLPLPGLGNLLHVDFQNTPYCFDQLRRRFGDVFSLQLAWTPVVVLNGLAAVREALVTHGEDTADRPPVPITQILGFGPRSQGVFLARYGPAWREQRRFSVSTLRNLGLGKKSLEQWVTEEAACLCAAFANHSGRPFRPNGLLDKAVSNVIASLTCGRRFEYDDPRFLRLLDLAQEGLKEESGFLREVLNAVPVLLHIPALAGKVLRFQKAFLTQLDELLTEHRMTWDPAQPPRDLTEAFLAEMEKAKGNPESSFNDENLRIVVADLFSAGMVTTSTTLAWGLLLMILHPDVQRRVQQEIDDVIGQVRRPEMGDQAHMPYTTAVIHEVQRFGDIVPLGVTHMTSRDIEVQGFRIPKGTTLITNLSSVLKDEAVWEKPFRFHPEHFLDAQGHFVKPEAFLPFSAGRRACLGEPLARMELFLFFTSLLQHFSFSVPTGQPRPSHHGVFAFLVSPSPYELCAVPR
# Protocol summary: Inhibition of human recombinant CYP2D6-mediated 7-methoxy-4(aminomethyl)-coumarine degradation
I only need the number, in µM, no unit after it.

Use the examples below as a reference point.
CC(C)(C)NC(=O)NCCN1CCC(CNC(=O)c2cc(Cl)cc(Cl)c2)C1 (stereo not given)
1
CC(C)(C)NC(=O)NCCN1CCN(CC(=O)Nc2cc(Cl)cc(Cl)c2)CC1
8
CC(C)(C)NC(=O)NCCN1CCC(CNC(=O)c2cc(Cl)cc(Cl)c2)CC1
3.4

Data request: Note IC50 for the compound shown: CC(C)(C)NC(=O)NCCN1CCC(O)(CNC(=O)c2cc(Cl)cc(Cl)c2)CC1
Data returned: 14

Data request: Note IC50 for the compound shown: COCC(=O)O[C@]1(CCN(C)CCCc2nc3ccccc3[nH]2)CCc2cc(F)ccc2[C@@H]1C(C)C
Data returned: 0.063

Data request: Note IC50 for the compound shown: CC(C)(C)NC(=O)NCCN1CC(NC(=O)c2cc(Cl)cc(Cl)c2)C1
Data returned: 4.5

Data request: Note IC50 for the compound shown: CC(C)(C)NC(=O)NCCN1CCC(CO)(CNC(=O)c2cc(Cl)cc(Cl)c2)CC1
Data returned: 13

Data request: Note IC50 for the compound shown: CC(C)(C)NC(=O)NCCN1CCCC(NC(=O)c2cc(Cl)cc(Cl)c2)C1 (stereo not given)
Data returned: 8.3
